Values from paper PMC11747885

# Experimental System: Rlig1-AMP (Homo sapiens, UniProt Q8N999)
# Construct: made in house; host or cells: E. coli BL21 (DE3), pET15b-Rlig1
# Sequence (Q8N999 whole entry): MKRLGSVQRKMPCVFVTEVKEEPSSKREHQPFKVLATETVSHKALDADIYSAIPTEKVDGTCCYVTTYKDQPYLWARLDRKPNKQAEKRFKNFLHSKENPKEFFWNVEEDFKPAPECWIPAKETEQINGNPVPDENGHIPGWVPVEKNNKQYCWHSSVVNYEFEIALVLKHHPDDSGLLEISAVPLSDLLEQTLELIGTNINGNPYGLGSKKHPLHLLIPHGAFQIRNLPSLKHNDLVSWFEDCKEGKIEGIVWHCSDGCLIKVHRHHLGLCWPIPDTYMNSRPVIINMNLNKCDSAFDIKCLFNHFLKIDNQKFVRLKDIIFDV
# Protocol Notes: FRET-based high-throughput screening of inhibitors for Rlig1-AMP
# Format: biochemical
# Assay Context: sheet HTS hits; difference of raw data w/o and w enzyme
This section presents molecules with their documented 1-D Distance values.
Keep it simple and answer with nothing but the number.

Solved entries:
Molecule	1-D Distance
Cc1cccc2c3c(ccc12)C(=O)C1=C(OCC1C)C3=O (centres unmarked) [Dihydroisotanshinone I]	1938
C[C@]12C=CC(=O)N[C@@H]1CC[C@@H]1[C@@H]2CC[C@]2(C)[C@@H](C(=O)Nc3cc(C(F)(F)F)ccc3C(F)(F)F)CC[C@@H]12 [Dutasteride]	1706

Problem: Provide value of 1-D Distance for this record tested with Rlig1-AMP (Homo sapiens, UniProt Q8N999): Cc1ccc(Cn2cc(CNC3=C(Cl)C(=O)c4cccnc4C3=O)nn2)cc1
Solution: 465

Problem: Can you check CS(=O)(=O)n1cc2c(n1)CN([C@H]1CO[C@H](c3cc(F)ccc3F)[C@@H](N)C1)C2 next?
Solution: 1732

Problem: Could you do the same for CO[C@H]1/C=C/O[C@@]2(C)Oc3c(C)c(O)c4c(O)c(c(/C=N/N5CCN(C)CC5)c(O)c4c3C2=O)NC(=O)/C(C)=C\C=C\[C@H](C)[C@H](O)[C@@H](C)[C@@H](O)[C@@H](C)[C@H](OC(C)=O)[C@@H]1C , please?
Solution: 268

Problem: Check C#CCOCCOCCOCCOCC#C too.
Solution: 1567

Problem: Again, but for CCOc1ccccc1OCCN[C@H](C)Cc1ccc(OC)c(S(N)(=O)=O)c1
Solution: 1837

Problem: Record: COc1cc2c(NCC3CCN(C)CC3)cc(-c3ccc(C)o3)nc2cc1OCCCN1CCCC1.Cl.Cl.Cl [CM-579 trihydrochloride]
Solution: 1286

Problem: Okay, and Cc1ncsc1-c1ccc(CNC(=O)[C@@H]2C[C@@H](O)CN2C(=O)[C@@H](NC(=O)CCN)C(C)(C)C)cc1.Cl.Cl [(S,R,S)-AHPC-C2-NH2 (dihydrochloride)] ?
Solution: 1672

Problem: What about this molecule? CC(=O)O[C@H]1C[C@@]2(C)[C@@H](C[C@@H](O)[C@H]3[C@@]4(C)CC[C@@H](O)[C@@H](C)[C@@H]4CC[C@@]32C)/C1=C(\CCC=C(C)C)C(=O)[O-].[Na+] [Fusidic acid (sodium salt)]
Solution: 1636

Problem: Try the molecule C/C1=C2N=C(/C=C3N=C(/C(C)=C4\[N-]C(C(CC(N)=O)C4(C)CCC(=O)NCC(C)OP(=O)([O-])OC4C(CO)OC(n5cnc6cc(C)c(C)cc65)C4O)C4(C)N=C1C(CCC(N)=O)C4(C)CC(N)=O)C(CCC(N)=O)C\3(C)C)C(CCC(N)=O)C/2(C)CC(N)=O.Cl.[Co+3].[OH-] (centres unmarked) [Hydroxocobalamin (monohydrochloride)]
Solution: 179

Problem: Now consider COc1cc(/C=C/C(=O)NCC(O)c2ccc(O)cc2)ccc1O (centres unmarked) and answer again.
Solution: 1918

Problem: For COC(=O)c1cc(OC)c2c(c1-c1c(C(=O)OC)cc(OC)c3c1OCO3)OCO2 [Bifendate] then?
Solution: 1790

Problem: How about this molecule: CC1=NN(c2ccc(C)c(C)c2)C(=O)/C1=N\Nc1cccc(-c2cccc(C(=O)O)c2)c1O
Solution: 1388

Problem: Now try COc1ccc(-c2coc3cc(O)cc(O)c3c2=O)cc1 .
Solution: 1536

Problem: And the next one, C=CC1=C(C)c2cc3[n-]c(cc4nc(cc5[n-]c(cc1n2)c(C)c5C=C)C(C)=C4CCC(=O)O)c(CCC(=O)O)c3C.[Cl-].[Fe+3] ?
Solution: 1716

Problem: What about O=C1c2ccccc2-c2nc3nonc3nc21 ?
Solution: 157
